Ref: paper PMC7389378

Biological target: Sobic_004G134100-YFP (GT61, ortholog of OsXAT2) (Sorghum bicolor)
Experiment: biochemical
Format: binding
Details: Sobic_004G134100-YFP expressed in N. benthamiana, n = 3; read-out: Kd (± 68% confidence)
measurement.kind: Kd
Number first, unit second.

Quick one: Kd of O=c1ccn([C@@H]2O[C@H](COP(=O)(O)OP(=O)(O)O[C@H]3O[C@@H](CO)[C@H](O)[C@H]3O)[C@@H](O)[C@H]2O)c(=O)[nH]1 ?
1860 nM
